Reported values of Ki for individual entries
Biological target: A1 adenosine receptor (Mesocricetus auratus, UniProt A0A1U8BVR4)
Construct: A1 adenosine receptor sites on the membranes of DDT cells; endogenous in cells
Sequence (A0A1U8BVR4 1-326): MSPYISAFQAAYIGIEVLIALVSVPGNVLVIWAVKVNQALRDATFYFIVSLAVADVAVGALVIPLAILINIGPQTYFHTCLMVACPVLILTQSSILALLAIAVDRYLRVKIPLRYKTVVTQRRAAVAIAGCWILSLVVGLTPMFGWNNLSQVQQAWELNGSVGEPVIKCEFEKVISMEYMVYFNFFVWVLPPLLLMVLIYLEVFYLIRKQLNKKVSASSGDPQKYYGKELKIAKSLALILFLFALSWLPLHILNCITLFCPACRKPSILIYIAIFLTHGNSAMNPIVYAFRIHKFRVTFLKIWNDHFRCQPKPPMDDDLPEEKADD
Experiment: Competitive binding assay, DDT cell membranes, 3H-CPX
Conditions: 1.5 nM 3H-CPX, 10 μM GTP-γS, 23° C. 90 minutes, read-out: Ki (low)

Field: example entries. Status: answers known.
OC[C@@H]1C[C@@H](O)[C@H](n2cnc3c(N[C@H]4CC[C@H](O)CC4)ncnc32)O1 ... > 5 µM
O=S(=O)(c1ccccc1)N1CC[C@@H](Nc2ncnc3c2ncn3[C@@H]2O[C@H](CO)C[C@H]2O)C1 ... > 5 µM
OC[C@@H]1C[C@@H](O)[C@H](n2cnc3c(N[C@@H]4CCOC4)ncnc32)O1 ... 1 µM

Would you kindly look at the next entry?
Asked: # return Ki for CC(=O)N1CC[C@@H](Nc2ncnc3c2ncn3[C@@H]2O[C@H](CO)C[C@H]2O)C1 , test system: A1 adenosine receptor (Mesocricetus auratus, UniProt A0A1U8BVR4)
Given back: > 5 µM
